// reported EC50 for each item listed
- measured target: SARS-CoV-2 spike protein receptor binding domain (RBD) (SARS-CoV-2, UniProt P0DTC2 319-539)
- assay summary: ELISA on plate-coated RBD
measurement type: EC50 (ng/mL)

binder	unit string	assay value
C049 (antibody, V domains shown) VH: QVQLQESGPGLVKPSETLSLTCTVSGGSVSSGTFYWSWIRQPPGKGLEWIGYIHYSGSTNYNPSLKSRVTISVDTSKNQFSLRLSSVTAADTAVYYCARESFYYDRSGYYGSDAFDIWGQGTMVTVSS VL: DIQMTQSPSTLSSSVGDRVTITCRASQNISRWLAWYQQKPGKAPKLLIYKASTLESGVPSRFSGSGSGTKFTLTISSLQPDDFATYYCQQYNSYLYTFGQGTKLEIK	ng/mL	4.09
C569 (antibody, V domains shown) VH: QVQLVESGGNVVQPGRSLRLSCAASGFTFSNYGMHWIRQAPGKGLEWVAVISYDGSDKYYADSVKGRVTISRDNSKNTLYLQMNSLRAEDTAVYYCAKGGPYGDHVRSDYWGLGTLVTVSS VL: DIQMTQSPSSLSASVGDRVTITCQASQDISNYLNWYQQKPGKVPKLLIYDASNLETGVPSRFSGSGSGTDFTFTISSLQPEDIATYYCQQFHNLPLTFGQGTKLEIK	ng/mL	11.1
